// pIC50 lookup, one value per entry
# TARGET_OR_SYSTEM: EIF2AK3 (PERK) catalytic domain (amino acids 536-1116) (Homo sapiens (Human), UniProt Q9NZJ5)
# Sequence (Q9NZJ5 536-1116): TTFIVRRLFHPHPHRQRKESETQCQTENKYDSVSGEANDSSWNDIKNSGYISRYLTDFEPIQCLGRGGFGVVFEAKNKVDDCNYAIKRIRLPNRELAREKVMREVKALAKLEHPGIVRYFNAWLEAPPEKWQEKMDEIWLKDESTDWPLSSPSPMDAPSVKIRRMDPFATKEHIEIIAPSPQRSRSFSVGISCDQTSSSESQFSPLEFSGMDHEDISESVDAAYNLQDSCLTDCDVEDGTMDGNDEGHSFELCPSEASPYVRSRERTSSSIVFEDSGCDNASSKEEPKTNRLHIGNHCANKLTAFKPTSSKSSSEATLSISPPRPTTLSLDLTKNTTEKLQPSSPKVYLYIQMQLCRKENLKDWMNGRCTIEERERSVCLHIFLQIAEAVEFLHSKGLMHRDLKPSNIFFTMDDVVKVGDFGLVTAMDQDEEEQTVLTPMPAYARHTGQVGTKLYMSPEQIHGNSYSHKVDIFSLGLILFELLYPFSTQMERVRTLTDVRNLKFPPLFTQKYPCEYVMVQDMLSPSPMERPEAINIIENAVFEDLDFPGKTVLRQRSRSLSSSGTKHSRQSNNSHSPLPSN
# PROTOCOL_DESCRIPTION: PERK in vitro activity assay (isolated), TR-FRET kinase assay
# SETTINGS: isolated PERK enzyme, 1.5 μM ATP, GFP-eIF2a substrate; read-out: Biochemical IC50
pIC50: −log10 of the molar value.

Nc1ncc(-c2ccc(NC(=O)C(O)c3cc(F)cc(F)c3)cc2Cl)cc1C(=O)NCC(F)(F)F (stereo not shown) [Example 86]
7.60 to 9.00
CCNC(=O)c1cc(-c2ccc(NC(=O)C(O)c3cc(F)cc(F)c3)cc2C)cnc1N (single isomer, unassigned) [Example 13]
7.60 to 9.00
Nc1ncc(-c2ccc(NC(=O)C(O)c3cc(F)cc(F)c3)cc2Cl)cc1C(=O)NC1CC1 (stereo not shown) [Example 84]
7.60 to 9.00
Cc1c(-c2cnc(N)c(C(=O)NC3COC3)c2)ccc(NC(=O)C(O)c2cc(F)cc(F)c2)c1F (stereo not shown) [Example 122]
6.30 to 6.60
CC(C)NC(=O)c1cc(-c2ccc(NC(=O)C(O)c3cc(F)cc(F)c3)cc2F)cnc1N (stereo not shown) [Example 33]
6.60 to 7.00
Cc1cc(NC(=O)C(O)c2cc(F)cc(F)c2)ccc1-c1ccc(N)nc1 (stereo not shown) [Example 171]
6.30 to 6.60

Okay, next one:
Input Cc1cc(NC(=O)Cc2ccc3ncccc3c2)ccc1-c1cnc(N)c(C(=O)NC(C)C)c1 . Output pIC50: 6.60 to 7.00

---

// IC50 lookup, one value per entry
# TARGET_OR_SYSTEM: PERK (Homo sapiens (Human), UniProt Q9NZJ5)
# Sequence (Q9NZJ5 30-1116): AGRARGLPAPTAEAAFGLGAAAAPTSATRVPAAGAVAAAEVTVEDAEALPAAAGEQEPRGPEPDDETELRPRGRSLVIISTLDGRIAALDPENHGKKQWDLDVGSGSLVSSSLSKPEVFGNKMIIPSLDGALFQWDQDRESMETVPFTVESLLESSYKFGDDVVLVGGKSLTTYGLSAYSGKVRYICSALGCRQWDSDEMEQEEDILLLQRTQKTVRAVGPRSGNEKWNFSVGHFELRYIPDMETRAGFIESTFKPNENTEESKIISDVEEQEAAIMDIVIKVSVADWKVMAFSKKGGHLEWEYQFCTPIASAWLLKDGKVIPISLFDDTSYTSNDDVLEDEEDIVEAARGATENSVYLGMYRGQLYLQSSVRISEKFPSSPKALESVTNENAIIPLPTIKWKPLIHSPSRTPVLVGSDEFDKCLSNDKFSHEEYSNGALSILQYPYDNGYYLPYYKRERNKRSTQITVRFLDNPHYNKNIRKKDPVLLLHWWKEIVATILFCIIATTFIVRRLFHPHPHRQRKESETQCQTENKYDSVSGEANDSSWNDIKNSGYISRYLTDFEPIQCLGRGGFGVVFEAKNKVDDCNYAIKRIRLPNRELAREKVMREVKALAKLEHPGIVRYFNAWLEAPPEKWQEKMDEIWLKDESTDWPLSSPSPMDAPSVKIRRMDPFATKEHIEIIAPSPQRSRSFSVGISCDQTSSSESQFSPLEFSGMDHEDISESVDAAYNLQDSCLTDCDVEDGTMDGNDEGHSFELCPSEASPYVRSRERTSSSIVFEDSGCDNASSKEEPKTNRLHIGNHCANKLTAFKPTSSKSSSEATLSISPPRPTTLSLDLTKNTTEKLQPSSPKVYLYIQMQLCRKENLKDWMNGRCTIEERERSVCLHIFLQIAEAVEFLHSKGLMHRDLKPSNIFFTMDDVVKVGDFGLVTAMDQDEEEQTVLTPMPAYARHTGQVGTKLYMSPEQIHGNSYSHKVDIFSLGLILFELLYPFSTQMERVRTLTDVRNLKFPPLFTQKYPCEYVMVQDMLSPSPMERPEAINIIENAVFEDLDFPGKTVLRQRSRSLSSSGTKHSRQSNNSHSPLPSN
# PROTOCOL_DESCRIPTION: PERK cellular assay (TR-FRET, HEK293-EGFP-eIF2α cells, tunicamycin-induced ER stress)
# Format: cell-based
# SETTINGS: tunicamycin 2 hours, read-out: Cellular IC50 (μM) (EIF2a)

Before answering, review these 6 worked examples.
COc1cccc(CC(=O)Nc2ccc(-c3cnc(N)c(C(=O)NC(C)C)c3)c(C)c2)c1 [Example 193]
0.501 to 1 µM
Cc1cc(NC(=O)C(O)c2cc(F)cc(F)c2)ccc1-c1cnc(N)c(C(=O)NCCN(C)C)n1 (stereo not shown) [Example 146]
0.101 to 0.25 µM
CC(C)NC(=O)c1cc(-c2ccc(NC(=O)C(O)c3cc(F)cc(F)c3)cc2OC(F)(F)F)cnc1N (stereo not shown) [Example 113]
0.501 to 1 µM
Cc1cc(NC(=O)Cc2ccccc2)ccc1-c1cnc(N)c(C(=O)NC(C)C)c1 [Example 187]
0.501 to 1 µM
Cc1c(-c2cnc(N)c(C(=O)NC3CC3)c2)ccc(NC(=O)C(O)c2cc(F)cc(F)c2)c1F (stereo not shown) [Example 120]
0.051 to 0.1 µM
CCNC(=O)c1cc(-c2ccc(NC(=O)C(O)c3cc(F)cc(F)c3)cc2C)cnc1N (single isomer, unassigned) [Example 13]
0.501 to 1 µM

Okay, next one:
Input Nc1ncc(-c2ccc(NC(=O)C(O)c3cc(F)cc(F)c3)cc2Cl)nc1C(=O)NCC(F)(F)F (stereo not shown) [Example 164] . Output IC50: 0.251 to 0.5 µM

---

# TARGET_OR_SYSTEM: PERK (Homo sapiens (Human))
# PROTOCOL_DESCRIPTION: PERK cellular assay (TR-FRET, HEK293-EGFP-eIF2α cells, tunicamycin-induced ER stress)
# Type: cell-based
# SETTINGS: tunicamycin 2 hours, read-out: Cellular IC50 (μM) (EIF2a)
ASSAY_READOUT: IC50

Before answering, review these 7 worked examples.
CCNC(=O)c1cc(-c2ccc(NC(=O)C(O)c3cc(F)cc(F)c3)cc2CC)cnc1N (centres unmarked) [Example 98]
0.001 to 0.025 µM
Cc1cc(NC(=O)C(O)c2cccc3cnn(C)c23)ccc1-c1cnc(N)c(C(=O)NC(C)C)c1 (centres unmarked) [Example 77]
3 to 4 µM
Cc1cccc(CC(=O)Nc2ccc(-c3cnc(N)c(C(=O)NC(C)C)c3)c(C)c2)c1
0.251 to 0.5 µM
CCc1cc(NC(=O)C(O)c2cccc(C)c2)ccc1-c1cnc(N)c(C(=O)NC(C)C)n1 (centres unmarked) [Example 161]
0.251 to 0.5 µM
Cc1cc(NC(=O)Cc2cccc3ccccc23)ccc1-c1cnc(N)c(C(=O)NC(C)C)c1
0.251 to 0.5 µM
Cc1cc(NC(=O)C(O)c2cc(F)cc(F)c2)ccc1-c1cnc(N)c(C(=O)NC2CCOCC2)c1 (centres unmarked) [Example 51]
0.501 to 1 µM
CCc1cc(NC(=O)C(O)c2cc(F)cc(F)c2)ccc1-c1cnc(N)c(C(=O)NC2COC2)n1 (centres unmarked) [Example 158]
0.001 to 0.025 µM

Okay, next one:
Input CC(C)NC(=O)c1nc(-c2ccc(NC(=O)C(O)c3cc(F)cc(F)c3)cc2Cl)cnc1N (centres unmarked) [Example 162] . Output IC50: 0.101 to 0.25 µM

---

// IC50 lookup, one value per entry
# TARGET_OR_SYSTEM: EIF2AK3 (PERK) catalytic domain (amino acids 536-1116) (Homo sapiens (Human), UniProt Q9NZJ5)
# PROTOCOL_DESCRIPTION: PERK in vitro activity assay (isolated), TR-FRET kinase assay
# SETTINGS: isolated PERK enzyme, 1.5 μM ATP, GFP-eIF2a substrate; read-out: Biochemical IC50

Before answering, review these 6 worked examples.
CC(C)NC(=O)c1cc(-c2ccc(NC(=O)C(O)c3cc(F)cc(F)c3)cc2OC(F)(F)F)cnc1N (stereo not shown) [Example 113]
0.051 to 0.1 µM
CCc1cccc(C(O)C(=O)Nc2ccc(-c3cnc(N)c(C(=O)NC(C)C)c3)c(Cl)c2)c1 (stereo not shown) [Example 95]
0.026 to 0.05 µM
CCc1cc(NC(=O)C(O)c2cc(F)cc(F)c2)ccc1-c1cnc(N)c(C(=O)NC2COC2)n1 (stereo not shown) [Example 159]
0.026 to 0.05 µM
CCc1cc(NC(=O)C(O)c2cc(F)cc(F)c2)ccc1-c1cnc(N)c(C(=O)NC(C)C)c1 (single isomer, unassigned) [Example 38]
0.001 to 0.025 µM
CC(C)NC(=O)c1cc(-c2ccc(NC(=O)C(O)c3cc(F)cc(F)c3)cc2OC(F)(F)F)cnc1N (stereo not shown) [Example 114]
0.251 to 0.5 µM
Cc1ccc(-c2ccc(NC(=O)C(O)c3cc(F)cc(F)c3)cc2C)cn1 (stereo not shown) [Example 180]
1 to 2 µM

Okay, next one:
Input Cc1cc(NC(=O)C(O)c2cc(F)cc(F)c2)ccc1-c1cnc(N)c(C(=O)NCC(F)(F)F)c1 (single isomer, unassigned) [Example 18] . Output IC50: 0.001 to 0.025 µM

---

# TARGET_OR_SYSTEM: EIF2AK3 (PERK) catalytic domain (amino acids 536-1116) (Homo sapiens (Human))
# PROTOCOL_DESCRIPTION: PERK in vitro activity assay (isolated), TR-FRET kinase assay
# SETTINGS: isolated PERK enzyme, 1.5 μM ATP, GFP-eIF2a substrate; read-out: Biochemical IC50
// IC50 lookup, one value per entry

Cc1cccc(C(O)C(=O)Nc2ccc(-c3cnc(N)c(C(=O)NC(C)C)c3)c(C)c2)c1 (stereo not drawn) [Example 66]
101 to 250 nM
Cc1cc(NC(=O)C(O)c2cc(F)cc(F)c2)ccc1-c1cncc(C(=O)NC(C)C)c1 (stereo not drawn) [Example 178]
26 to 50 nM

Okay, next one:
Record Cc1cc(NC(=O)CCc2ccccc2)ccc1-c1cnc(N)c(C(=O)NC(C)C)c1 ; system EIF2AK3 (PERK) catalytic domain (amino acids 536-1116) (Homo sapiens (Human)); IC50 = 251 to 500 nM

---

# TARGET_OR_SYSTEM: EIF2AK3 (PERK) catalytic domain (amino acids 536-1116) (Homo sapiens (Human), UniProt Q9NZJ5)
# PROTOCOL_DESCRIPTION: PERK in vitro activity assay (isolated), TR-FRET kinase assay
# SETTINGS: isolated PERK enzyme, 1.5 μM ATP, GFP-eIF2a substrate; read-out: Biochemical IC50
pIC50: −log10 of the molar value.
ASSAY_READOUT: pIC50

Before answering, review these 2 worked examples.
CC(C)NC(=O)c1cc(-c2ccc(NC(=O)C(O)c3cc(F)cc(F)c3)c(F)c2Cl)cnc1N (stereo not shown) [Example 123]
7.60 to 9.00
Cc1cc(NC(=O)CC2CCCCC2)ccc1-c1cnc(N)c(C(=O)NC(C)C)c1
5.70 to 6.00

Input Nc1ncc(-c2ccc(NC(=O)C(O)c3cc(F)cc(F)c3)cc2Cl)nc1C(=O)NCC(F)(F)F (stereo not shown) [Example 164] . Output pIC50: 5.70 to 6.00
